# Test: Rat brain and plasma PK
# Type: in vivo
# Details: male, Sprague-Dawley, rat, brain; 10 mg/kg oral, rats, 4 h time point; read-out: brain exposure

[
  {
    "Compound": "Cn1nc(N2CCC(OC(=O)N3CCN(C4CCC4)CC3)CC2)ccc1=O [Compound (I)]",
    "Measurement Unit": "ng/g",
    "concentration at 4 h": 21
  }
]

----------
# Target: UniProt Q9Y5N1
# Test: Radioligand binding assay with [3H]-N-α-methylhistamine
# Details: human recombinant H3R, 1.0 nM [3H]-N-α-methylhistamine, Cheng-Prusoff

[
  {
    "Compound": "Cn1nc(N2CCC(OC(=O)N3CCN(C4CCC4)CC3)CC2)ccc1=O [Compound (I)]",
    "Ki, µM": 0.0085
  },
  {
    "Compound": "O=C(c1ccc(CN2CCOCC2)cc1)N1CCN(C2CC2)CC1 [bavisant, reference compound]",
    "Ki, µM": 0.102
  }
]

----------
# Target: H3 receptors in the brain (Homo sapiens, UniProt Q9Y5N1)
# Sequence (Q9Y5N1 whole entry): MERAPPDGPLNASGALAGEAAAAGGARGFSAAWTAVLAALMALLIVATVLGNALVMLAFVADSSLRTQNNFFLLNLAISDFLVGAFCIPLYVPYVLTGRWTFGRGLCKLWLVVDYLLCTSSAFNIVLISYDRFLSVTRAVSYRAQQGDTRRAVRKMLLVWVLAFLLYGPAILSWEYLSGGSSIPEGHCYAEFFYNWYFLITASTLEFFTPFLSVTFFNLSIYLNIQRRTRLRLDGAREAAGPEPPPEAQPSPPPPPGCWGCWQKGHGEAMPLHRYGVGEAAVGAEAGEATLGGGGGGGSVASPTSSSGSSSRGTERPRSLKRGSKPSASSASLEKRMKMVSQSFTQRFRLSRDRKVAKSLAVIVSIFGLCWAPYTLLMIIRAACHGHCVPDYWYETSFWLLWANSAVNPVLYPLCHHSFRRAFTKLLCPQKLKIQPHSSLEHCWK
# Test: PET brain H3 receptor occupancy study with [11C]MK-8278 in healthy volunteers
# Details: read-out: EC50 (plasma concentration leading to 50% occupancy of H3 receptors); Emax model of PK-RO relationship, plasma concentration
# Experimental: An open-label, adaptive design study was performed in healthy volunteers to characterize regional brain H3 receptor occupancy following single dose of Compound (I) by using positron emission tomography (PET) with the radioligand [^11C]MK-8278 (Van Laere, K. J. et al, Journal of Nuclear Medicine, 2014, 55: 65-72). The primary objective of this study was to evaluate the plasma concentration of Compound (I) leading to 50% occupancy of H3 receptors in the brain (EC50). […]
pEC50: −log10 of the molar value.

[
  {
    "Sample Smiles": "Cn1nc(N2CCC(OC(=O)N3CCN(C4CCC4)CC3)CC2)ccc1=O",
    "Target": "H3 receptors in the brain (Homo sapiens, UniProt Q9Y5N1)",
    "pEC50": 9.11
  }
]

Reference source: patent US20210379062A1
